# Test system: EPHB1;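 also: KINOMEscan kinase panel screen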
# Measurement Setup: concentration: 1 μM, replicates: in singlicate; n = 1
Provide the recorded %Inh for the entries that follow.

Solved cases below.
Molecule | Result
Nc1nc(-c2ccccc2F)c(-c2ccnc3ccccc23)s1 | 34%
Cl.c1ccc(Cn2cnc3cc(Nc4ncnc5ccccc45)ccc32)cc1 | 0%
C[C@@H]1CC[C@H](C(=O)NC2CCCCC2)CN1c1cc(-c2ccc3c(N)n[nH]c3c2)nc(N)n1 | 26%
CCC(=O)c1c(-c2ccccc2)c2cc(Cl)ccc2c(=O)n1Cc1cc(S(C)(=O)=O)n(CC(N)=O)n1 | 0%
Fc1cccc(CSc2nnc(-c3ccc4c(c3)CCO4)o2)c1 | 9%
COc1ccc(-n2cnc3c(N)ncnc32)cc1 | 19%

Below are some molecules; for each one, tell me its %Inh.
1. COc1cc(Nc2ccnc3ccc(C(F)(F)F)cc23)cc(OC)c1OC
2. Cc1nnc(-c2ccc3ncn(-c4ccc(S(C)=O)cc4)c3c2)o1 (stereo not drawn)
3. COc1ccc(Nc2nccc(N3CCC(NS(=O)(=O)c4ccc(NC(C)=O)cc4)C3)n2)cc1 (stereo not drawn)

1. 10%
2. 1%
3. 19%

Values compiled from paper PMC5540273.
